system: BMDC; assay: Immunomodulatory activity in LPS stimulated BALB/c mouse bone marrow-derived dendritic cells assessed as increase in IL-12 level at 10 ug/ml after 24 hrs by FACS analysis (reference value: 44%); format: functional
Active and inactive are the calls of the source. No cut-off for these calls is given here.

{"columns": ["Substance", "Target system", "Activity"],
 "data": [
  ["H-PKDIQVALFSATMPEEVL-OH", "BMDC", "inactive"],
  ["H-IQQRAIAPFTRGGDII-OH", "BMDC", "65%"],
  ["H-FLDDQPGVRPIPSFDDM-OH", "BMDC", "inactive"],
  ["H-TRELALQTAEVISRIGE-OH", "BMDC", "inactive"],
  ["H-KPSSIQQRAIAPFTRGG-OH", "BMDC", "inactive"]
]}

Provenance of the data: ChEMBL document CHEMBL4177589
